Listing of recorded biofilm OD600 by entry.
Tested on: Candida albicans SNY425 biofilm
Method description: biofilm OD600 with compound plus antifungal (OD600 (absorbance)); higher = more biofilm remaining
Condition summary: assay detail: sustained inhibition (compound + antifungal during 90-min adherence and 24-h growth)

Molecule | biofilm OD600
CCN1C(=O)C=CC1=O [N-Ethylmaleimide] + CC[C@H](C)C[C@H](C)CCCCCCCCC(=O)N[C@H]1C[C@@H](O)[C@@H](NCCN)NC(=O)[C@@H]2[C@@H](O)CCN2C(=O)[C@H]([C@H](O)CCN)NC(=O)[C@H]([C@H](O)[C@@H](O)c2ccc(O)cc2)NC(=O)[C@@H]2C[C@@H](O)CN2C(=O)[C@H]([C@@H](C)O)NC1=O [caspofungin] (first compound 4 µM) | 0.17
CC(C)C[C@H](NC(=O)[C@H]1O[C@@H]1C(=O)O)C(=O)NCCCCN=C(N)N + C[C@@H]1[C@H](O)[C@@H](C)/C=C/C=C/C=C/C=C/C=C/C=C/C=C/[C@H](O[C@@H]2O[C@H](C)[C@@H](O)[C@H](N)[C@@H]2O)C[C@@H]2O[C@](O)(C[C@@H](O)C[C@@H](O)[C@H](O)CC[C@@H](O)C[C@@H](O)CC(=O)O[C@H]1C)C[C@H](O)[C@H]2C(=O)O [amphotericin B] (first compound 12.5 µM) | 0.209
O=C(O[C@@H]1Cc2c(O)cc(O)cc2O[C@@H]1c1cc(O)c(O)c(O)c1)c1cc(O)c(O)c(O)c1 [Epigallocatechin gallate] + C[C@@H]1[C@H](O)[C@@H](C)/C=C/C=C/C=C/C=C/C=C/C=C/C=C/[C@H](O[C@@H]2O[C@H](C)[C@@H](O)[C@H](N)[C@@H]2O)C[C@@H]2O[C@](O)(C[C@@H](O)C[C@@H](O)[C@H](O)CC[C@@H](O)C[C@@H](O)CC(=O)O[C@H]1C)C[C@H](O)[C@H]2C(=O)O [amphotericin B] (first compound 12.5 µM) | 0.231
NC(=O)c1cccc(-c2cccc(OC(=O)NC3CCCCC3)c2)c1 + CC[C@H](C)C[C@H](C)CCCCCCCCC(=O)N[C@H]1C[C@@H](O)[C@@H](NCCN)NC(=O)[C@@H]2[C@@H](O)CCN2C(=O)[C@H]([C@H](O)CCN)NC(=O)[C@H]([C@H](O)[C@@H](O)c2ccc(O)cc2)NC(=O)[C@@H]2C[C@@H](O)CN2C(=O)[C@H]([C@@H](C)O)NC1=O [caspofungin] (first compound 12.5 µM) | 0.171
CC(NC(=O)C(Cc1ccccc1)NC(=O)OCc1ccccc1)C(=O)CF (stereo not given) + CC[C@H](C)C[C@H](C)CCCCCCCCC(=O)N[C@H]1C[C@@H](O)[C@@H](NCCN)NC(=O)[C@@H]2[C@@H](O)CCN2C(=O)[C@H]([C@H](O)CCN)NC(=O)[C@H]([C@H](O)[C@@H](O)c2ccc(O)cc2)NC(=O)[C@@H]2C[C@@H](O)CN2C(=O)[C@H]([C@@H](C)O)NC1=O [caspofungin] (first compound 12.5 µM) | 0.185

###

Tested on: Candida albicans SNY425 biofilm
Method description: biofilm OD600 with compound plus antifungal (OD600 (absorbance)); higher = more biofilm remaining
Condition summary: assay detail: disruption of 24-h mature biofilm (compound + antifungal for a second 24 h)

Molecule | Tgt | biofilm OD600
CC(C)CC(=O)N[C@H](C(=O)N[C@H](C(=O)N[C@@H](CC(C)C)[C@@H](O)CC(=O)N[C@@H](C)C(=O)N[C@@H](CC(C)C)[C@@H](O)CC(=O)O)C(C)C)C(C)C [Pepstatin A] + OC(Cn1cncn1)(Cn1cncn1)c1ccc(F)cc1F [fluconazole] (first compound 12.5 µM) | Candida albicans SNY425 biofilm | 0.255
O=C(O[C@@H]1Cc2c(O)cc(O)cc2O[C@@H]1c1cc(O)c(O)c(O)c1)c1cc(O)c(O)c(O)c1 [Epigallocatechin gallate] + OC(Cn1cncn1)(Cn1cncn1)c1ccc(F)cc1F [fluconazole] (first compound 12.5 µM) | Candida albicans SNY425 biofilm | 0.262
Nc1ccc(CC(CC(=O)O)C(=O)O)cc1 [4-Amino-D, L-benzylsuccinic acid] + C[C@@H]1[C@H](O)[C@@H](C)/C=C/C=C/C=C/C=C/C=C/C=C/C=C/[C@H](O[C@@H]2O[C@H](C)[C@@H](O)[C@H](N)[C@@H]2O)C[C@@H]2O[C@](O)(C[C@@H](O)C[C@@H](O)[C@H](O)CC[C@@H](O)C[C@@H](O)CC(=O)O[C@H]1C)C[C@H](O)[C@H]2C(=O)O [amphotericin B] (first compound 12.5 µM) | Candida albicans SNY425 biofilm | 0.293
